Entry source: paper PMC12195967

Item-by-item account of K(HSA)
Molecular target: human serum albumin (HSA) (Homo sapiens, UniProt P02768)
Construct: purchased Sigma-Aldrich Co
Sequence (P02768 25-609): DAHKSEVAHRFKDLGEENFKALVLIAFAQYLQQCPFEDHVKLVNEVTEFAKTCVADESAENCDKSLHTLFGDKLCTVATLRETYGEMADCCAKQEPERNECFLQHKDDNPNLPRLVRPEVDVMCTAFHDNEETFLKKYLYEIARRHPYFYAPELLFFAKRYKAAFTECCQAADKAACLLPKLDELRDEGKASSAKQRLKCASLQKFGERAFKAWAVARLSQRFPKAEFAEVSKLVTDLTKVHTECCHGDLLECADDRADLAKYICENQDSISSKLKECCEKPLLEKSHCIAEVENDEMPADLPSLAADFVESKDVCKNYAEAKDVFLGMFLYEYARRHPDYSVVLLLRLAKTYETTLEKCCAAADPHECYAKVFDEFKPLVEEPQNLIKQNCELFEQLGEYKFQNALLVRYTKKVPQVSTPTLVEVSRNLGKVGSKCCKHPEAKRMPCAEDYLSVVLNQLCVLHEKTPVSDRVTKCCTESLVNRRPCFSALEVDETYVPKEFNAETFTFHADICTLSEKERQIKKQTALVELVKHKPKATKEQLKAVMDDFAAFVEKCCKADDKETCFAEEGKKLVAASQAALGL
Test: Albumin tryptophan fluorescence quenching
Assay type: binding
Settings: Scatchard equation; no site marker
quantity: K(HSA)

compound	quantity	recordedValue
CO.CO.CO.CO.O=C([O-])c1ccccc1Nc1ccc([N+](=O)[O-])cc1.O=C([O-])c1ccccc1Nc1ccc([N+](=O)[O-])cc1.[Co+2] [Complex 1, [Co(4′–NO2–fen)2(MeOH)4]]	K(HSA)	1.68 (±0.04) × 10^5 M^−1
C[O-].C[O-].Cc1ccc2ccc3ccc(C)nc3c2n1.Cc1ccc2ccc3ccc(C)nc3c2n1.O=C([O-])c1ccccc1Nc1ccc([N+](=O)[O-])cc1.O=C([O-])c1ccccc1Nc1ccc([N+](=O)[O-])cc1.[Co+2].[Co+2] [Complex 4, [Co2(4′–NO2–fen)2(μ–CH3O)2(neoc)2]]	K(HSA)	5.03 (±0.19) × 10^5 M^−1
O=C([O-])c1ccccc1Nc1ccc([N+](=O)[O-])cc1.O=C([O-])c1ccccc1Nc1ccc([N+](=O)[O-])cc1.[Co+2].c1cnc2c(c1)ccc1cccnc12 [Complex 3, [Co(4′–NO2–fen)2(phen)]]	K(HSA)	1.93 (±0.09) × 10^5 M^−1
O=C(O)c1ccccc1Nc1ccc([N+](=O)[O-])cc1	K(HSA)	3.82 (±0.09) × 10^5 M^−1
O=C([O-])c1ccccc1Nc1ccc([N+](=O)[O-])cc1.O=C([O-])c1ccccc1Nc1ccc([N+](=O)[O-])cc1.[Co+2].c1ccc(Nc2ccccn2)nc1 [Complex 2, [Co(4′–NO2–fen)2(bipyam)]]	K(HSA)	2.56 (±0.10) × 10^5 M^−1

====

Parameter percentage of the observed hyper-/hypochromism (ΔA/A0, %): see the listing below.
Test system: CT DNA
Experiment: Interaction with CT DNA by UV-vis spectroscopy
Type: binding, calf
Conditions: UV band at λmax 391–421 nm, upon addition of CT DNA; + hyperchromism, − hypochromism
quantity: percentage of the observed hyper-/hypochromism (ΔA/A0, %)

compound	unitsSymbol	recordedValue
C[O-].C[O-].Cc1ccc2ccc3ccc(C)nc3c2n1.Cc1ccc2ccc3ccc(C)nc3c2n1.O=C([O-])c1ccccc1Nc1ccc([N+](=O)[O-])cc1.O=C([O-])c1ccccc1Nc1ccc([N+](=O)[O-])cc1.[Co+2].[Co+2] [Complex 4, [Co2(4′–NO2–fen)2(μ–CH3O)2(neoc)2]]	%	−3
O=C([O-])c1ccccc1Nc1ccc([N+](=O)[O-])cc1.O=C([O-])c1ccccc1Nc1ccc([N+](=O)[O-])cc1.[Co+2].c1cnc2c(c1)ccc1cccnc12 [Complex 3, [Co(4′–NO2–fen)2(phen)]]	%	−2.5
CO.CO.CO.CO.O=C([O-])c1ccccc1Nc1ccc([N+](=O)[O-])cc1.O=C([O-])c1ccccc1Nc1ccc([N+](=O)[O-])cc1.[Co+2] [Complex 1, [Co(4′–NO2–fen)2(MeOH)4]]	%	−10
O=C([O-])c1ccccc1Nc1ccc([N+](=O)[O-])cc1.O=C([O-])c1ccccc1Nc1ccc([N+](=O)[O-])cc1.[Co+2].c1ccc(Nc2ccccn2)nc1 [Complex 2, [Co(4′–NO2–fen)2(bipyam)]]	%	−10
O=C(O)c1ccccc1Nc1ccc([N+](=O)[O-])cc1 [4′–NO2–fenH, 4′–nitrofenamic acid]	%	−12
